Consider the following binders; for each one, report its glycan array binding signal (z-score).
Biological target: Neu5Ac(a2-3)Gal(b1-3)GlcNAc(b1-2)Man
Assay: glycan array binding signal (z-score within array); higher = stronger binding
Settings: glycan notation: IUPAC condensed, linker removed
Only a selection was taken, and the strongest signals are over-represented in it overall.
Give bare numbers.

Worked examples, 3 binders total:
* Pwp7 (Candida glabrata) (protein) MGSSHHHHHHSSGLVPRGSHMASKNPVDFPNLCQYPNLDGAVAGFDTEIYNADPSILINFSLWPILQFPKEWHKTIGRAITTQTNFKLPASDTTLFGVSIPTQNILIEFRGYFIPPKSGTYTFALYLTDDGSAMFLGNDAAFPCGNITSWSNPTNDQVSVSDYDPKKKTLTVYMVAGVAYPLRIAYYNREKGGSLTASFVDPDGLTHSDWNGYIWTLPSCDNCKYS | 0.574
* Epa12 (Candida glabrata) (protein) MGSSHHHHHHSSGLVPRGSHMLEPDNSLQIFDSFLSNPSKYPLGCSPKITNPKKGLSMELYSYPYRKKGSHPCWDPAYLDPNFPRVGYKKNKLIARVDGVSGDINFNFHPKRQCTPIADYLPPNFNYNEPITTTNFTMLLYGYFKPKVTGLHTFDISADDLLFMNFGAGNAFDCCRRDSTADTFGNYVAWAIWGRRIVRNKLTVRLDKGIYYPLRLFFNNRDYYGQMRLTFKTEHGSERITDFSDYFFSVDDTSEGCPGLITYESECADVKSSTVLETDYITIQAEKE | -0.336
* Pbx2CASH domain (Cryptococcus neoformans) (protein) GIPGPNRLYRLSGPIIFTAADQEIATYGYPTGSERAVLRVEGRNTATAIQGDCRRCARVSVKNLVVDGNRKKLGRMRDFQLATGLVVLGGNEGQSIQNSWIKNPRGFTAIHIREGDKLQCSGARVEKNEIGPVGEEYDPEKDGDDPEMSPLGRPLADGVSIACRDSFIRDNTFRDNTDAAIVVYCSPGTLIHA | 3.35

Now take the following binder into account.
Looking up SJCP1531 (Schistosoma japonicum) (protein) MFKVRIINLVNISTVLLLINLLQTKSQVNVEQLVTVLEVNIKAQLKNKTTEVLVEWNPLYQDNSMPEYRKLLDETCKLFLPFVNEKVPPSTYGGECTNANFSEAPQDGSYSRVNAELRLIYKYSDNPQIQTDRLQDDLNDREEFITSESSFVAYNPKFTVKIEKLFIPISESQTTPPPTTAKNDASKKDDDDNGGEDSKAPIDTFAMTASGNKGKKDDDDNGGEDSKAPIDTFAMTASGSKDERSTWTIIGIITLVVLIFVVIGGGITVFVKRC , I found its glycan array binding signal (z-score) recorded as -0.604
